Test system: NCI-H460 lung
ASSAY_EXPLANATION: NCI tumour cell line growth inhibition, 48 h
Where a SMILES comes first, the peptide text is derived from it. The star is where a group is joined. Fmoc = O=C(OCC1c2ccccc2-c2ccccc21)*; Boc = CC(C)(C)OC(=O)*
Record form. Attribute: TGI. Fill in for each entry.

As a guide, the following entries are already answered.
COMPOUND	ASSAYED_TARGET	TGI
CC(=O)O[C@@H]1C2=C(C)C=C(O2)[C@H]2O[C@]2(C)C[C@H]2C=C(C(=O)O2)[C@H](OC(C)=O)CC1[C@@]1(C)CO1 (some centres undefined)	NCI-H460 lung	> 100 µM
COc1cc2c3c(c1OC)-c1c(ccc4c1OCO4)CC3(C#N)N(C(=O)c1ccccc1)CC2 (centres undefined)	NCI-H460 lung	> 100 µM

Each compound below has a reported value. Please supply its TGI.
1. CC(C)(C)OC(=O)NCCCCC(NC(=O)OCC1c2ccccc2-c2ccccc21)C(=O)N1CCCC1C(=O)NCC(N)=O (stereo not drawn) (Fmoc-Lys(Boc)-Pro-Gly-NH2; configuration not given here)
2. CCc1ccc2nc(-c3ccc(O)cc3)sc2c1
3. COc1cc(Nc2ccnc(NCCCNc3ccnc4cc(Cl)ccc34)n2)cc(OC)c1
4. NC(=O)c1cc(-c2ccc(F)cc2)cc(-c2ccncc2)c1N
5. CCCCCCCCCCCCOP(=O)(O)OCC(N)C(=O)O (centres undefined)

*A*
37.9 µM
41.3 µM
3.77 µM
> 25 µM
43.2 µM

###

System: SNB-75 CNS
ASSAY_EXPLANATION: NCI tumour cell line growth inhibition, 48 h
VALUE_TYPE: TGI

Record excerpt, results attached:
> print(dat)
                                   compound  recorded.measurement
1  CN(C)c1ccc(Nc2cc(-c3cccc(OC(F)(F)F)c3)nc3ccc(N4CCCC4)cc23)cc1               3.12 µM
2  CCCCS(=O)(=O)CCC(N)C(=O)O (stereo not drawn)              > 100 µM

// next item, TGI requested
*Q* Tell us which TGI value is on record for CN1C(=O)[C@@H]2[C@@H]3c4ccccc4N(S(=O)(=O)C(F)(F)F)[C@@H]3c3[nH]c4ccccc4c3[C@@H]2C1=O
*A* > 100 µM

###

Test system: HCC-2998 colon
ASSAY_EXPLANATION: NCI tumour cell line growth inhibition, 48 h
For each record, write down the corresponding GI50.

> print(dat)
                    structure.smiles.string  recorded.measurement
1  NC(=O)c1cc(-c2ccc(F)cc2)cc(-c2ccncc2)c1N               > 25 µM

List the reported GI50 of each molecule below.
1. CN1CCN(c2ccc3nc(-c4ccc5nc(-c6ccc(OCCC(C)(C)C)cc6)[nH]c5c4)[nH]c3c2)CC1
2. CC(C)CCN=C(N)c1ccc(N2CCN(c3ccc(C(N)=NCCC(C)C)cc3)CC2)cc1
3. COc1ccc(Nc2c3ccccc3nc3ccccc23)cc1
4. COc1cc(C2=C(C#Cc3ccccc3)COC2=O)cc(OC)c1OC
5. COc1cc2c3c(n(CCCI)c(=O)c2cc1OC)-c1cc2c(cc1C3=O)OCO2
6. COc1cc(O)c(C(=O)/C=C/c2ccc(O)cc2)c(O)c1[C@@H]1C[C@H](CCc2ccc(O)cc2)O[C@H](c2ccc(O)cc2)C1
7. Oc1[nH]c2ccc(Cl)cc2c1/C=c1/ccc2c(c1)N=C(c1ccc(F)cc1)N=2
8. O=C1/C(=C/c2ccc(Cl)cc2)N=C(c2ccccc2)N1CCc1cccs1

*A*
5.06 µM
11.1 µM
1.92 µM
12.4 µM
5.61 µM
2.25 µM
4.68 µM
31.8 µM

*Q* // fetch GI50 for Fc1ccc(Nc2nc3nonc3nc2Nc2ccc(F)cc2)cc1 ; system: HCC-2998 colon
*A* 0.414 µM

Origin of the recorded values: PubChem BioAssay (NCI)
